# PROTOCOL_TEXT: qHTS Assay for Lipid Storage Modulators in Drosophila S3 Cells;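 further: cells counted by Cell Tracker Red CMTPX staining in the red channel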
# CONDITION_SET: BODIPY lipid droplet fluorescence, 18-24 h, cells fed with added oleic acid; measured here: cell count max response
In all, about 320,000 compounds went through this assay and about 2,100 (0.66%) were called active. Another 53% or so got no clear call; they are omitted. This is one part of a sample in which actives are shown more often than they occur.
QUANTITY_NAME: cell number change (%)
Provide the reading as a plain figure in %.

Task: Dear colleague, please send me the reported cell number change for "CCN1CCN(Cc2c(C)[nH]c3ccc(OC)cc3c2=O)CC1" when you can.
Output: 9.98

Task: Dear colleague, please send me the reported cell number change for "O=C(Nc1ccccc1)Nc1nnc(Cc2ccc(F)cc2)s1" when you can.
Output: 14

Task: Dear colleague, please send me the reported cell number change for O=C(O)c1ccccc1NC(=O)C1CCCO1 (configuration not stated) when you can.
Output: -12.3

Task: Dear colleague, please send me the reported cell number change for COc1cccc(C2/C(=C(/O)c3ccc4c(c3)OCO4)C(=O)C(=O)N2CCN2CCOCC2)c1 (configuration not stated) when you can.
Output: 25.8

Task: Dear colleague, please send me the reported cell number change for Cc1ccc(NC2OC(CO)C(O)C2O)cc1[N+](=O)[O-] (configuration not stated) when you can.
Output: -2.09

Task: Dear colleague, please send me the reported cell number change for "COc1ccc2c(c1)c(CC(=O)Nc1cccc(S(N)(=O)=O)c1)c(C)n2C(=O)c1ccc(Cl)cc1" when you can.
Output: -13.5

Task: Dear colleague, please send me the reported cell number change for "Cc1cc(C)cc(OCCCCn2cncn2)c1" when you can.
Output: 7.77

Task: Dear colleague, please send me the reported cell number change for "C[C@@H](NC(=O)c1nc[nH]c1C(=O)NCC(=O)OC(C)(C)C)c1ccccc1" when you can.
Output: 2.99

Task: Dear colleague, please send me the reported cell number change for "Cc1ccccc1/C=N/n1c(COc2ccccc2)n[nH]c1=S" when you can.
Output: 4.96

Task: Dear colleague, please send me the reported cell number change for "O=C(Nc1nnc(Cc2ccc(F)cc2)s1)Nc1ccccc1F" when you can.
Output: -6.61

Task: Dear colleague, please send me the reported cell number change for "O=C(O)Cn1cc(C(=S)N2CCOCC2)c2ccccc21" when you can.
Output: -0.629

Task: Dear colleague, please send me the reported cell number change for "Cc1cccc(OCc2cc(-c3ccccc3)no2)c1C" when you can.
Output: 19.4

Task: Dear colleague, please send me the reported cell number change for "COc1ccc(NC(=O)Nc2nnc(Cc3ccc(F)cc3)s2)cc1" when you can.
Output: -7.21

Task: Dear colleague, please send me the reported cell number change for "COc1cc2c(cc1NC(=O)c1cccnc1)CCCC2" when you can.
Output: -6.97

Task: Dear colleague, please send me the reported cell number change for CCC(C)C(=O)Nc1ccc(OC)cc1OC (configuration not stated) when you can.
Output: 17.4

Task: Dear colleague, please send me the reported cell number change for CCOC(=O)c1ccccc1NC(=O)C1CCCO1 (configuration not stated) when you can.
Output: 2.7

Task: Dear colleague, please send me the reported cell number change for "COc1ccc(CNC(=O)CSc2n[nH]c(N)n2)cc1" when you can.
Output: 2.63

Task: Dear colleague, please send me the reported cell number change for CC1Cc2ccccc2N1C(=O)COC(=O)C1=COCCO1 (configuration not stated) when you can.
Output: -1.1

Task: Dear colleague, please send me the reported cell number change for "Cc1ccc(C(=O)N2C3=C(CCCC3)C(=O)NC23CCCCC3)cc1" when you can.
Output: 3.44

Task: Dear colleague, please send me the reported cell number change for "O=c1[nH]c2ccc(S(=O)(=O)N3CCCCC3)cc2o1" when you can.
Output: 2.33

Task: Dear colleague, please send me the reported cell number change for "Cc1ccc(-c2nc3ccccc3[nH]2)cn1" when you can.
Output: 10.6

Task: Dear colleague, please send me the reported cell number change for "COc1ccc(NC(=O)CN2CCCN(S(=O)(=O)c3ccc(F)cc3)CC2)c(OC)c1" when you can.
Output: 0.557

Task: Dear colleague, please send me the reported cell number change for CC(=O)c1ccc(NC2OC(CO)C(O)C(O)C2O)cc1 (configuration not stated) when you can.
Output: -9.97

Task: Dear colleague, please send me the reported cell number change for "Cn1c(N)c(C(=O)COC(=O)CNS(=O)(=O)c2cccc(Cl)c2)c(=O)n(C)c1=O" when you can.
Output: -1.55

Task: Dear colleague, please send me the reported cell number change for Cc1ccccc1C1c2[nH]c3ccccc3c2C[C@H]2C(=O)N(C3CC3)CC(=O)N12 (some centres not stated) when you can.
Output: -3.81

Task: Dear colleague, please send me the reported cell number change for "S=C(c1cn(Cc2ccccc2)c2ccccc12)N1CCOCC1" when you can.
Output: 4.05

Task: Dear colleague, please send me the reported cell number change for "CCCN(CCC)S(=O)(=O)c1ccc2c(c1)CCCN2C(C)=O" when you can.
Output: -13.4

Task: Dear colleague, please send me the reported cell number change for "COc1ccc(NC(=O)CN2CCC(C(=O)c3ccc(F)cc3)CC2)c(OC)c1" when you can.
Output: -0.87

Task: Dear colleague, please send me the reported cell number change for "CCOC(=O)c1c[nH]c2c(C)cc(C)cc2c1=O" when you can.
Output: -13.9

Task: Dear colleague, please send me the reported cell number change for "COc1cn(-c2ccccc2)nc1C(=O)NCc1ccccc1" when you can.
Output: 10.4

Task: Dear colleague, please send me the reported cell number change for "COc1ccc(NC(=O)c2ccc(C(=O)Nc3ccc(OC)cc3OC)cc2)c(OC)c1" when you can.
Output: 1.2

Task: Dear colleague, please send me the reported cell number change for CC(CNC(=O)Cn1ccc2cc(S(=O)(=O)N3CCCC3)ccc21)c1ccccc1 (configuration not stated) when you can.
Output: 5.34

Task: Dear colleague, please send me the reported cell number change for "CC(C)c1nnc(NC(=O)C2CCN(C(=O)Nc3ccc(Cl)cc3)CC2)s1" when you can.
Output: 5.41

Task: Dear colleague, please send me the reported cell number change for Cc1ccc(NC2OC(CO)C(O)C(O)C2O)cc1 (configuration not stated) when you can.
Output: -12.8

Task: Dear colleague, please send me the reported cell number change for "CC(=O)N1CCN(C(=S)c2ccc(Cl)cc2)CC1" when you can.
Output: -11.3

Task: Dear colleague, please send me the reported cell number change for "Cc1cc[n+](CC(=O)N2CCCc3ccccc32)cc1" when you can.
Output: -2.96

Task: Dear colleague, please send me the reported cell number change for COc1ccc(NC(=O)C(CC(C)C)NC(=O)C2CCCCC2)c(OC)c1 (configuration not stated) when you can.
Output: -5.85

Task: Dear colleague, please send me the reported cell number change for "Cc1cc(Br)ccc1NC(=O)CNC(=O)CSc1ncccn1" when you can.
Output: -9.9

Task: Dear colleague, please send me the reported cell number change for "O=C(OCCc1cc2ccccc2c(=O)o1)c1cccc(Br)c1" when you can.
Output: -23.3

Task: Dear colleague, please send me the reported cell number change for "COCCn1c(Cc2ccccc2)nnc1SCC(=O)N1CCCC1=O" when you can.
Output: 2.89

Task: Dear colleague, please send me the reported cell number change for Cc1ccn(CC(=O)N2CCCC(N3CCN(Cc4ccc5c(c4)OCO5)CC3)C2)n1 (configuration not stated) when you can.
Output: 8.09

Task: Dear colleague, please send me the reported cell number change for "CC(=O)N1CCN(c2ccccc2NC(=O)COc2cc(C)cc(C)c2)CC1" when you can.
Output: 13.5

Task: Dear colleague, please send me the reported cell number change for "Cc1ccc(C2(c3noc(CN4C[C@@H](C)O[C@@H](C)C4)n3)CCCC2)cc1" when you can.
Output: -4.24

Task: Dear colleague, please send me the reported cell number change for "OCC1(CCOc2ccccc2)CCN(Cc2ccccc2OC(F)F)CC1" when you can.
Output: 9.07

Task: Dear colleague, please send me the reported cell number change for COC(=O)c1ccccc1NC(=O)C1CCCO1 (configuration not stated) when you can.
Output: -0.0238

Task: Dear colleague, please send me the reported cell number change for "N#Cc1ccc(C(=O)OCCCc2cc3ccccc3c(=O)o2)cc1" when you can.
Output: 18

Task: Dear colleague, please send me the reported cell number change for "CCN(CC)CCNC(=S)Nc1ccc(Cl)cc1" when you can.
Output: 1.74
